Origin of the recorded values: ChEMBL document CHEMBL4049439

- protocol: Apparent clearance in NMRI mouse at 120 mg/kg, sc by LC-MS/MS analysis
- Type: ADME, organism-based
- details: in vivo

chemSmiles: COc1ccc2ccc(=O)n(C[C@H](N)[C@@H]3CC[C@@H](NCc4ccc5c(n4)NC(=O)CO5)CO3)c2n1
CL/F (mL/min/kg): 86

----------
Measured pIC50 by item
- protocol: Inhibition of wild-type Pseudomonas aeruginosa DNA gyrase supercoiling activity using relaxed pBR322 DNA as substrate by ethidium bromide based agarose gel electrophoresis
pIC50: −log10 of the molar value.
reportedProperty: pIC50

chemSmiles: COc1ccc2ccc(F)c(C[C@H](N)[C@@H]3CC[C@@H](NCc4ccc5c(n4)NC(=O)CO5)CO3)c2n1
reportedProperty: pIC50
recordedMeasurement: 7.52
//
chemSmiles: COc1ccc2ncc(F)c(C[C@H](O)[C@@H]3CC[C@@H](NCc4cc5c(nn4)OCCS5)CO3)c2n1
reportedProperty: pIC50
recordedMeasurement: 6.30
//
chemSmiles: COc1ccc2ncc(F)c(C[C@H](N)[C@@H]3CC[C@@H](NCc4ccc5c(n4)NC(=O)CO5)CO3)c2n1
reportedProperty: pIC50
recordedMeasurement: 7.52
//
chemSmiles: COc1ccc2ccc(=O)n(C[C@H](O)[C@@H]3CC[C@@H](NCc4cc5c(nn4)OCCO5)CO3)c2n1
reportedProperty: pIC50
recordedMeasurement: 5.10
